# Assay Comment: folding stability dG unfold (combined trypsin and chymotrypsin); higher = more stable
Measured Endpoint: folding stability dG unfold (kcal/mol)
# value in kcal/mol; strip the unit string

Check out these entries, answers already filled in.
INSERT INTO assay_data (residue_codes, recorded_number) VALUES
  ('SAGGSAGGSKAEVFETPDGLVVVVVPTEDSVRAFVFFPDGYIAEFDFPTGKIVRIFSPDEEIASAGGSAGGS [r12_235_TrMRF]', 3.27),
  ('SEMSVEEILKKIAEELLKKNPNKEVTKEIEIEFEKPDPEGKRLLKEKVKATIKVTPDKIEILSESREILLSA [r9_361_JUSTAS]', 1.31);

Q) // folding stability dG unfold lookup, key: SASMTYTVTVTVSVKNPDGTPIGTIPITRTMNLDEAKVIVEKEIKKTVDELFPGKPANVTVDTTVTPLPSAG [r14_570_JUSTAS]
A) 0.899

Q) Okay, and VNPRTLTYDPVTNRIDAATPDGTPVTVTAGSSGYTATVTDPATGAPTVVPLTEAELAALEADPAFPLATSNS [r1_18_JUSTAS] ?
A) -0.115

---

# Assay Comment: folding stability dG unfold (combined trypsin and chymotrypsin); higher = more stable
# if value of folding stability dG unfold reaches 3 kcal/mol, tag y; if it stays below, tag n

Use the examples below as a reference point.
INSERT INTO measurements (residue_codes, qualitative_label) VALUES
  ('SAGGSAGGSAGMTLEEIEELLKKEGIDPSTLGNEKIAEIIKKKNPNTTITSSPEGTGYISKSAGGSAGGSAG [r3_375_JUSTAS]', 'n'),
  ('SAGGSAGGAKPPKTVTVKVEVTNADGETQTRTVTLTNLPKDLKPGDTVTLPETGQTARIVEITPSAGGSAGG [r6_560_TrROS_Hall]', 'y'),
  ('SAGGSAGGSPRVLEIRRYPLPDGGYLLEVRFEKETLFIPVPENVPPHSLEEIEIPLLLGEKPESAGGSAGGS [r12_673_TrMRF]', 'n'),
  ('SAGGSAGGSMPFIKVKVRFIEPNGIERTFEIELPEDKNLDEAIKLAPLFAKNGLPVEIEEVEGSAGGSAGGS [r12_804_TrMRF]', 'n'),
  ('SAGGSDVKTYTFVGIDPETGELVETTFRVTPLVPPVPVSVSVSLTLDVDPDGNLHLSLSVSVELGGSAGGSA [r2_326_TrMRF]', 'y');

Q) Does folding stability dG unfold meet or surpass 3 kcal/mol for SAGGPLSEEELEALRKALEAARAAGAETVTLTATLTVTRTVTLPDGSTRTETRTLTLTLTVTLPPEESAGGS [r8_203_TrROS_Hall] ?
A) y

Q) Same lookup for SAMIEVYRPPDRALVKLPSGKVEILDDPEAFEARVRAESDLPIRVTPLSPESPEFKALLEEIEKKLKGKSAG [r14_235_JUSTAS] , please.
A) n

Q) SAGGSAEEIARKLAEELAEEGEEVEVEVVEVEVEKVDGKEKVIRIRVKVKLPNGEELELELEIKLDELSAGG [r13_215_TrROS_Hall] ?
A) n

Q) Please answer likewise for SAGGSAGGSAGGYIEIVFAHPDPEPGYKYAMVMEIQMDPPGNMEMNIRVIKDPEDAKEAFSAGGSAGGSAGG [r11_792_TrROS]
A) n

Q) Next up: SSEKEVEVTIKIPLYYERPDGTIEEYDIEIKVKVKIDNGGFIAENLEEAIREVLEKLNIPEGHPDAPYFNKS [r1_175_TrMRF]
A) n

Q) Note, next up: SWWYMVKIEIENGGKPIKIPVPVNDLDDFIDNAREAIPPDLADQLPPNMEVEVEVMPIPRVDPENGKPRPSA [r9_111_TrROS]
A) n
